Origin of the recorded values: patent US20220259593A1

Test system: K562 CRISPRi cells
test-description: Constant region variant library pooled growth screen, K562
Type: cell-based, human
conditions: sgRNA constant region variants; activity relative to the original, un-modified constant region cr995
measurement-label: Mean relative activity
Write no unit; give the number alone.

# return recorded Mean relative activity for entry cr547 (nucleic acid, listed as DNA, chemistry not fully specified) guide: GTTTAAGAGCTAAGCTGGAAACAGCATAGCAAGTTTAAATGAGGCTAGTCCGTTATCAACTTGAAAAAGTGGCACCGAATCGGTGCT
0.02194

Return Mean relative activity for the following molecule: cr886 (nucleic acid, listed as DNA, chemistry not fully specified) guide: GTTTAAGAGCTAAGCTGGAAACAGCATAGCAAGTTTAAATAAGGCTAGTCCGTTATCAAATAGAAATATTGGCAGCGAGTCGCTGCT
0.7791

State, in one line, measured Mean relative activity of cr555 (nucleic acid, listed as DNA, chemistry not fully specified) guide: GTTTAAGAGCTAAGCTGGAAACAGCATAGCAAGTTTAAATAAGTCTAGTACGTTATCAACTTGAAAAAGTGGCACCGAGTCGGTGCT
0.719

Quickly give me recorded Mean relative activity for cr278 (nucleic acid, listed as DNA, chemistry not fully specified) guide: GTTTAAGAGCTAAGCTGGAAACAGCATAGCAAGTTTAAATAAGGCTAGCCCGTTATCAACTTGAAAAAGTGGCACCGAATCGGTGCT
0.7368
